- TEST_DETAILS: yeast display, Sf9 membrane polyspecificity reagent, FACS + sequencing; frameworks hold sequencing errors
OBSERVED_PROPERTY: polyreactivity (PSR sort gate)

>>> measured("QVQLVESGGGLVQAGGSLRLSCAASGLILGPYAMGWYRKAPGKERELVAAITRGGGTYYADSVKGRFTISRDNAKNTVYLQMNSLKPEDTAVYDCARIYYVSIYRYDYWGQGTQVTVSS")
"high polyreactivity"
>>> measured("QVQLVESGGGLVQAGGRLRLSCAASGRTFYGFAMGWYRQAPGKERELVASISRDGSTNYADSVKGRFTISRDNAKNTVYLQMNSLKPEDNAVYYCAADIWYYRYPIYYYSYDYWGQGTQVTVSS")
"low polyreactivity"
>>> measured("QVQLVESGGGLVQAGGSLRLSCAASDLQILCYGWYRQPPGKERELFASITRGDGSTYYADSVKGRFTISRDNAKNTVFIQMNSLKPEDTAVYYCADYNDWRDELYDYWGQGTQVTVSS")
"low polyreactivity"
>>> measured("QVQLVESGGGLVQAGGSLRLSCAASGRTFGYYAMGWYRQAPGKERELVAAISWRGGSTYYADSVKGRFTISRDNAKNTVYLQMNSLKPEDTAVYYCHRAYVYPQGPYPYDYWGQGTQVTVSS")
"high polyreactivity"
>>> measured("QVQLVESGGGLVQAGGSLRLSCAASGSTFNGYTMGWYRQAPGKERELVAAITWSGGRTYYADSVKGRFTISRDNAKNTVYLQMNSLKPEDTAVYYCAAKLRSRYDYWGQGTQVTVSS")
"high polyreactivity"
>>> measured("QVQRVESGGGLVQARASLRLSCAASGSIFPHYAMGWYRQAPGKERDLVATIRSRSGSTYYADSVKGRFTISRDNAKNTVYLQMNSLKPEDTAVYYCAARYYKERYWGQGTQVTVSS")
"low polyreactivity"
>>> measured("QVQLVESGGGLVQAGGRLRLSCAASGSIFNSYAMGWYRQAPGTEREFVASIPKSGGTTYYADSVKGRFTISRDNAKNTVYLQMNSLKPEDTAVYYCAADWYRSSWTYNYWGQGTQVTLSS")
"low polyreactivity"
>>> measured("QVQLVESGGGLVQAGGSLRLSCAASGSTFQSNAMGWYRQAPGKERELVATITQSGATTYYADSVKGRFTISRDNAKNTVYLQMNSLKPEDTAVYYCNVDTYQKRWFWLDLDGGYWGQGTQVTVSS")
"low polyreactivity"
>>> measured("QVQLVESGGGLVQAGGSLRLSCAASGSIFYYNAMGWYRQAPGKERELVAAMSWSGGSTYDADSVKGRFTISRDNAKHTVYLQMNSLKPEDTAVYYCRYYRRDEMDYWGQGTQVTVSS")
"high polyreactivity"
>>> measured("QVQLVESGGGLVQAGGSLRLSCAASGSTFYRNAMGWSRPAPGKERELVAAINKSGGRTYYADSVKGRFTISRDNAKNTVYLQMNSLKPEDTAVYYCAAGVSVDLDYWGQGTQVTVSS")
"high polyreactivity"
>>> measured("QVQLVESGGGLVQAGGSLRLSCAAYGGIFKQYALGCYRQAPGKERELVAANTWSGGSTYYADSVKGRFTISRDNAKNTVYLQMNSLKPEDTAVYYCAKDYVLFQYVDFQDDDYWGQGTQVTVSS")
"low polyreactivity"
>>> measured("QVQLVESWGGLVQAGGSLRLSCAASGYISNAMGWYRQAPGKERELVAVITRGGSTNYADSVKGRFTISRDNAKNTVYLQMNSLKPEDTAVYYCAKDVPYRRVRSEYWGQGTQVTVSS")
"low polyreactivity"
>>> measured("QVQLVESGGGLVQAGGSLRLSCAASGSILRFNSMGWYRQAPGKERELVATITKGGGRTNYADSVKGRFTISRDNAKKTVYLQMNSLKPQDTSVYYCAEKFIYARYGTFQTDYKIYDYWGQGTQVTVSA")
"high polyreactivity"
>>> measured("QVQLVESGGGLVQAGGSLRLSCAASGRIFSQYAMGWYRQAPGKERELVAAISSRGGRTYYADSVKGRFTISRDNAKNTVYLQMNSLKPEDTAVYYCAAVIRSRYSYYEYDYWGQGTQVTVSS")
"high polyreactivity"

* * *

- TEST_DETAILS: yeast display, Sf9 membrane polyspecificity reagent, FACS + sequencing; frameworks hold sequencing errors
OBSERVED_PROPERTY: polyreactivity (PSR sort gate)

>>> measured("QVELVESGGGLVQAGGSLRLSCAASGFIFYRYTMGWYRQAPGKEREVVAAISRRGGSTYYADSVKGRFTISRDNAKNTVYLQLNSLKPEDTAGYYCAARLGGYPRQGRYDYWGQGTQVTVSS")
"high polyreactivity"
>>> measured("QVQLVESGGGLVQAGGSLRLSCAASGGTFLVNAMGWYRQSPGKEREWVATITARVASTYYADSVTGRFTISRDNAKNTVYLQMNTLKPEDTAVYYCAARKVWGYTYGYPYYYWGQATQVTVSS")
"high polyreactivity"
>>> measured("QVQLQESGGGVQAGGSLRLSCAASGSISAPILMGWYRQAPGKERELVAGIGGGANTYYADSVKGRFTVSRDNAKYTVYLQMNSLKPEDTAVYYCAAGDYYWTNFGYWGQGTQVTASS")
"high polyreactivity"
>>> measured("QVQLVESVVGLVQEGGSLRLSCAASGRIFAWYAMGWYRQAPGKERELVAAISDSGGSTYYADSVKGRFTISRDNAKNTVYLQMNSLKPEDTAVYYCAAQYVIRITFYATYWDDYWGQGTQVTVSS")
"low polyreactivity"
>>> measured("QVQLVDSGGGLYQAGGSLSLTCAASGSIFDFNAMGWYRQAPGKERELVAAISGSGARTYYADSVKGRFTIARDNAKHTVYLQLNSLKPEDTAVYLCARPYVYGYDSWGQGTQVTFSS")
"high polyreactivity"
>>> measured("QVQLVESGGGLVQAGGSLRLSCAASGSIFKYYAMGWYRQAPGKERELVAAISSGGRTYYADSVKGRFTISRDNAKNTVYLQMNSLKPEDTAVYYCNRPPWSRGSNYWGQGTQVTVSS")
"high polyreactivity"
>>> measured("QVQIVESGGGLVQAGGSLRISCAASGRTYRFYAMGWYRQAPGKERELVAAISSGGSTYYADSVKGRFTISRDNAKNTVYLQMNSLNPEDTAVYYCAAQRWRGASLYDYWGQGTQVTVSS")
"high polyreactivity"
>>> measured("QVQLVESGGGLVQAGGSLRLSCAASGSNISNYVMGWYRQAPWKERELVAAITRRGGRTYYADSVKGRFTISRDYAKNTFYLQMNSLKPEDTAVYYCAKRHVGSRYLFEYWGQGTQVTVSS")
"low polyreactivity"
>>> measured("QVQLVESGGGLVQAGGSLRLSCAASGNIFSAYAMGWYRQAPGKEREFVAAISYSGGNTYYADSVKGRFTISRDNAKNTVYLLMNSLKPEVSAVYYCAARVLNKYYRYGYWGQGTQVTVSS")
"high polyreactivity"
>>> measured("QVQLVESGGGLVQAGGSLRLSCAASGRIFGVYAKGWYRQAPGKERELVAAISEGGGSTNYADSVKGRFTISRDNAKNTVYLQMNSLKPEETSVYYCAATYLTGVRRYYSWGQGSQVTVSS")
"low polyreactivity"
>>> measured("QVQLVESGGGLVQAGGSLRLSCAASGSTFRTNAMGWYRQAPGKERELVADISKRGGNTYYADSVKGRFTISRDNAKNTVYLQMNCLKPEDTALYDCAAYRVYGYGGGYDYYYWVQGTQVTVSS")
"high polyreactivity"
>>> measured("QVHLVESGGGLVQAGGSLRLSCAASGFTFRTYAMGWYRQAPGKERELVAAITRNGGTYYADSVKGRFTISRDNAKNTVNLQMNSLKPEDTAVYYCATDPAYWGDQPPEDDYWGQGTQVTVSS")
"low polyreactivity"
>>> measured("QLHLVESGGGLVQAGGSLRLSCAASGLTFDQYAMGWYRQAPGKERELVAAISGSDSTYYADSVKGRFTISRDNAKNTVYLQMNSLKPEDTAVYYCAASGDYVNIITGERFDARLYDYWGQGTQVTVSS")
"low polyreactivity"
>>> measured("QVQLVESGGGLVQAGGSLRLSCAASGSIFRIYAMGWSRQAPGKERELVAAIDSSGGSTYYADSVKGRFTISRDNAKNTVYLQMNSLKPEDTAVYYCAADFGSKSTPYDYWGQGTQVTVSS")
"low polyreactivity"
>>> measured("QVQLVESGGGLVQAGGSLRLSCAASGFISARYAMGWYRQAPGKERELVAGISGGGGRTYYADSVKGRFTISRDNAKNTVYLQMNSLKPEDTAVYYCASTQQSRDRRFNYWGQGTQVTVSS")
"high polyreactivity"
>>> measured("QVQLVESGGGLVQAGGSLRLSCAASGSIFKLNAMGWYRQAPGKERELVAVINKSGGRTYYADSVKGRFTISRDNAKNTVYFQMNSLKPEDTAVYYCNAVSKLAVNLDYWGQGTQVTVSS")
"high polyreactivity"

Sourced from the nanobody polyreactivity screen of Harvey et al. (2022)
